target.or.test.system: KRAS WT (Homo sapiens (Human), UniProt P01116+P62937)
Sequence (P01116 other isoform, or with tags, fused parts or gaps): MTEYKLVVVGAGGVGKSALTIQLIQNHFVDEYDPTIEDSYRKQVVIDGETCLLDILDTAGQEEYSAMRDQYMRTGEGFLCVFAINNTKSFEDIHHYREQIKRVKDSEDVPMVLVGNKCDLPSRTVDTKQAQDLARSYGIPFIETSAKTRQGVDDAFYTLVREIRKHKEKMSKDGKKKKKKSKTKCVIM
Sequence (P62937 whole entry): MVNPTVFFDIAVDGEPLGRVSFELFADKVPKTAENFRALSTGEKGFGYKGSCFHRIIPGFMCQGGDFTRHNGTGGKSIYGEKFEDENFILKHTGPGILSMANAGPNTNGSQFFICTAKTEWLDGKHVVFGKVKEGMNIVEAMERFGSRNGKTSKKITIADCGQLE
test.protocol: Ras-Raf disruption/FRET/MOA assay (BRAF RBD, Cyclophilin A)
Assay type: biochemical
measurement.context: read-out: KRAS WT FRET data IC50
pIC50: −log10 of the molar value.
Overview of reported pIC50 across a group of compounds:

{"columns": ["query.smiles", "reported.property", "reported.measurement"],
 "data": [
  ["CCn1c(-c2cccnc2[C@H](C)OC)c2c3cc(ccc31)-c1cc(O)cc(c1)C[C@H](NC(=O)[C@H](C(C)C)N(C)C(=O)C1CC1)C(=O)N1CCC[C@H](N1)C(=O)OCC(C)(C)C2", "pIC50", "7.00 to 8.00"]
]}

compound CCn1c(-c2cccnc2[C@H](C)OC)c2c3cc(ccc31)-c1csc(n1)C[C@H](NC(=O)[C@H](C(C)C)N1CCC3(COC3)C1)C(=O)N1CCC[C@H](N1)C(=O)OCC(C)(C)C2 , pIC50 observed: 7.00 to 8.00

compound CCn1c(-c2cccnc2[C@H](C)OC)c2c3cc(ccc31)-c1csc(n1)C[C@H](NC(=O)[C@H](C(C)C)N(C)C(=O)N1CCN(C)CC13CC3)C(=O)N1CCC[C@H](N1)C(=O)OCC(C)(C)C2 , pIC50 observed: 5.00 to 6.00

compound CCn1c(-c2cccnc2[C@H](C)OC)c2c3cc(ccc31)-c1csc(n1)[C@@H](OC)[C@H](NC(=O)[C@H](C(C)C)N(C)C(=O)N(C)C)C(=O)N1CCC[C@H](N1)C(=O)OCC(C)(C)C2 , pIC50 observed: 6.00 to 7.00

compound CCn1c(-c2cccnc2[C@H](C)OC)c2c3cc(ccc31)-c1csc(n1)C[C@H](NC(=O)[C@H](C(C)C)N(C)C(=O)N(C)C[C@H]1CCCN1C)C(=O)N1CCC[C@H](N1)C(=O)OCC(C)(C)C2 , pIC50 observed: 6.00 to 7.00

The measured values listed here are drawn from patent US20250195521A1.
